target: Genome polyprotein (dengue virus type 2, UniProt P29990); experiment: Dengue-2 NS5 methyltransferase inhibitors, primary screen, biochemical, confirmation dose response (AID 588689); assay type: functional
Sequence (P29990 2492-3391 limits assumed): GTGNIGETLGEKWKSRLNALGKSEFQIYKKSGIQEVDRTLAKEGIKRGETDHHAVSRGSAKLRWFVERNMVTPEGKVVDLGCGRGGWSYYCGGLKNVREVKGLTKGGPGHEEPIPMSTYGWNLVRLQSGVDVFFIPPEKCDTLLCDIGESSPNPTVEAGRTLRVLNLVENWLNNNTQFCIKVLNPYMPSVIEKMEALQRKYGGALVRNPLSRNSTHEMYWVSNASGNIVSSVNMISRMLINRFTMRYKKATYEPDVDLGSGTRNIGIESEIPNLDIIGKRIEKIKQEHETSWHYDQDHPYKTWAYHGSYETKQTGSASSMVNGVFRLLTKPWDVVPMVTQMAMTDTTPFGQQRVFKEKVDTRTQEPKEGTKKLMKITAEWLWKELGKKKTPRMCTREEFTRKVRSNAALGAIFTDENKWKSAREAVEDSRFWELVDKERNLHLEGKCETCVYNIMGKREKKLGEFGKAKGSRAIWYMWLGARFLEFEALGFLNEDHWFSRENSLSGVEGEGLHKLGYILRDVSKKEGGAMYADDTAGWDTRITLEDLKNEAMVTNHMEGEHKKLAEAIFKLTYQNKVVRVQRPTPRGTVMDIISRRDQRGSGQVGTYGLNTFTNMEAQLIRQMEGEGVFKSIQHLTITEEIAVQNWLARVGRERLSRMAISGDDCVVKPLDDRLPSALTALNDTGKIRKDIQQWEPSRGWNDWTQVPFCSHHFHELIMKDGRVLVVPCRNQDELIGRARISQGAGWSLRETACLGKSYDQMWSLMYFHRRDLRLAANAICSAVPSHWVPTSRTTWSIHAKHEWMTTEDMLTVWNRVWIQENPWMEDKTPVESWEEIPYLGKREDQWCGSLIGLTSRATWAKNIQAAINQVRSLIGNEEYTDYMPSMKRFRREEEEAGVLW
Calls of active or inactive are those of the source.
For each of the compounds below, state its IC50.

CCCCCc1c2c(cc(O)c1C(=O)O)OC(=O)c1c(cc(OC)cc1C(=O)CCCC)O2 [LOBARIC ACID]
32.2 µM (active)
COc1cc(NC(=O)CSc2ncnc3sc4c(c23)CCC(C)C4)c(C(=O)O)cc1OC (stereo unspecified)
86 µM (active)
O=C(O)c1cc(N2C(=O)C=CC2=O)cc(N2C(=O)C=CC2=O)c1
19.6 µM (active)
C#CCOc1ccc(/C=C2/C(=O)N(c3ccc(S(N)(=O)=O)cc3)N=C2C)cc1OC
> 100 µM (active)
CCOC(=O)c1c(NC(=O)/C=C/C(=O)O)sc(C)c1-c1ccc(Cl)cc1
43 µM (active)

Read the next record carefully.
Reported IC50 of COc1ccc(/C=c2\sc3nc(=O)c(C)nn3c2=O)c(OC)c1 : 22.1 µM (active)

* * *

Target: Sentrin-specific protease 8 (Homo sapiens, UniProt Q96LD8);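 note: luminescence read-out of SENP8 inhibition, dose-response confirmation following an ultra-high-throughput screen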
Sequence (Q96LD8 whole entry): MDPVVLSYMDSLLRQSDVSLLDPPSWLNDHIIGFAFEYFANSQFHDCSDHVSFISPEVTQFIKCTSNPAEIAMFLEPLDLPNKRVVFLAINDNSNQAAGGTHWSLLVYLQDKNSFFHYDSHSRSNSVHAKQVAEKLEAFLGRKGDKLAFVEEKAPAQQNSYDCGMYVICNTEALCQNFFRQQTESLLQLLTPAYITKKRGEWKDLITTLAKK
Assay type: functional
Activity calls are given as the source filed them.
Hi there, I'd appreciate the recorded IC50 for every entry that follows.

Cc1ccc(C(=O)c2sc3nsc(C)c3c2N)cc1
> 100 µM (inactive)
C=COC(=O)CSc1nc(-c2cccs2)ccc1C#N
8.96 µM (active)
O=C(Nc1cccc(Cl)c1)N1CCc2ccccc2C1
26.1 µM (active)
CS(=O)(=O)Nc1ccc(C(=O)Nc2ccc3ccccc3c2)cc1
> 100 µM (inactive)

The reported Sentrin-specific protease 8 (Homo sapiens, UniProt Q96LD8) IC50 of O=c1c2cc(-c3ccccc3)sc2nc2n1CCC2 is 10.9 µM (active)

* * *

target: Nonstructural protein 1 (Influenza A virus, UniProt Q194T2); format: functional, Influenza A virus (A/California/07/2009(H1N1))
Sequence (Q194T2 whole entry): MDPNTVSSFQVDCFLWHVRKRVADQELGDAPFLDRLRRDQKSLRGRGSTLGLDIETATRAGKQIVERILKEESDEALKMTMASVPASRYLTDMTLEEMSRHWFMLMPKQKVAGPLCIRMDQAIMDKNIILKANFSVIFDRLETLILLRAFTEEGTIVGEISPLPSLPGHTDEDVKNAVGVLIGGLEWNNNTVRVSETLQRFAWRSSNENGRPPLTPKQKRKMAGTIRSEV
Calls of active or inactive are those of the source.
Kindly state IC50 for each of the entries shown.

Oc1cc(-c2ccncc2)cc2cccnc12
11.9 µM (active)

Working through the 6 compounds below one at a time, give IC50 for each.
1. CN(C)c1cccc2c1C(=O)c1ccccc1C2=O
2. O=C1/C(=C\c2ccc(-c3ccccc3[N+](=O)[O-])o2)C(c2ccccc2)=NN1c1ccccc1
3. O=[N+]([O-])c1ccc(O)c(/C=N/NC2=NS(=O)(=O)c3ccccc32)c1
4. CN(C)c1ccc(/N=C/c2ccco2)cc1
5. O=C(N/N=C/c1cc(Cl)ccc1O)c1cccnc1
6. Cc1ccnc2nc(C(=O)Nc3nc(-c4ccccn4)cs3)nn12

output:
10.1 µM (active)
21.3 µM (active)
2.35 µM (active)
16.6 µM (active)
5.8 µM (active)
5.06 µM (active)

* * *

The next entries give measured AC50 for Cytochrome P450 3A4 (Homo sapiens, UniProt P08684).

O=S(=O)(c1ccccc1)N1CCC2(CCN(c3ncccn3)CC2)CC1
31.6 µM (inconclusive)

Quick request: AC50 for each listed item, please.
1. c1cc(CNCCCN2CCOCC2)ccn1
2. Cc1cc(C)cc(C(=N)c2ccccc2Cc2cccc3ccccc23)c1
3. CC1CCC(C(=O)NC(C(=O)N2CCC(N3CCCCC3)CC2)C(C)C)CC1 (centres undefined)
4. CNC(=O)[C@@H]1O[C@@H](n2cnc3c(NCc4cccc(I)c4)ncnc32)[C@H](O)[C@@H]1O

output:
31.6 µM (inconclusive)
2.51 µM (inconclusive)
14.1 µM (inconclusive)
39.8 µM (inconclusive)
